Settings: in ethanol, 323.15 K
Observed Property: solubility (mole fraction)

Looking up O=Cc1ccc(C(=O)O)cc1 , I see its solubility (mole fraction) listed as 0.028

###

Conditions: in methanol, 288.15 K
Observed Property: solubility (mole fraction)

Looking up O=Cc1ccc(C(=O)O)cc1 , I see its solubility (mole fraction) listed as 0.00899

###

Details: in ethanol, 298.15 K
Observed Property: solubility (mole fraction)

Looking up O=Cc1ccc(C(=O)O)cc1 , I see its solubility (mole fraction) listed as 0.0134

###

Details: in methanol, 313.15 K
Observed Property: solubility (mole fraction)
Numbers only.

Looking up O=Cc1ccc(C(=O)O)cc1 , I see its solubility (mole fraction) listed as 0.0163

###

Conditions: in isopropanol, 283.15 K
Observed Property: solubility (mole fraction)
Answers are plain numbers.

Looking up O=Cc1ccc(C(=O)O)cc1 , I see its solubility (mole fraction) listed as 0.00498

###

Settings: in water, 283.15 K
Observed Property: solubility (mole fraction)
Give bare numbers.

Looking up O=Cc1ccc(C(=O)O)cc1 , I see its solubility (mole fraction) listed as 2.15e-05

###

Conditions: in water, 293.15 K
Observed Property: solubility (mole fraction)
One number for each entry.

Looking up O=Cc1ccc(C(=O)O)cc1 , I see its solubility (mole fraction) listed as 3.61e-05

###

Settings: in NMP, 313.15 K
Observed Property: solubility (mole fraction)

Looking up O=Cc1ccc(C(=O)O)cc1 , I see its solubility (mole fraction) listed as 0.161

###

Settings: in isopropanol, 288.15 K
Observed Property: solubility (mole fraction)

Looking up O=Cc1ccc(C(=O)O)cc1 , I see its solubility (mole fraction) listed as 0.00612

###

Conditions: in ethanol, 283.15 K
Observed Property: solubility (mole fraction)
Give bare numbers.

Looking up O=Cc1ccc(C(=O)O)cc1 , I see its solubility (mole fraction) listed as 0.00815

###

Conditions: in isopropanol, 303.15 K
Observed Property: solubility (mole fraction)
Numbers only.

Looking up O=Cc1ccc(C(=O)O)cc1 , I see its solubility (mole fraction) listed as 0.0103

###

Details: in NMP, 293.15 K
Observed Property: solubility (mole fraction)
Numbers only.

Looking up O=Cc1ccc(C(=O)O)cc1 , I see its solubility (mole fraction) listed as 0.0897

###

Conditions: in methanol, 298.15 K
Observed Property: solubility (mole fraction)
Answers are plain numbers.

Looking up O=Cc1ccc(C(=O)O)cc1 , I see its solubility (mole fraction) listed as 0.0115

###

Details: in methanol, 283.15 K
Observed Property: solubility (mole fraction)
One number for each entry.

Looking up O=Cc1ccc(C(=O)O)cc1 , I see its solubility (mole fraction) listed as 0.00781

###

Details: in isopropanol, 293.15 K
Observed Property: solubility (mole fraction)

Looking up O=Cc1ccc(C(=O)O)cc1 , I see its solubility (mole fraction) listed as 0.00727

###

Conditions: in NMP, 298.15 K
Observed Property: solubility (mole fraction)
One number for each entry.

Looking up O=Cc1ccc(C(=O)O)cc1 , I see its solubility (mole fraction) listed as 0.104

###

Details: in NMP, 318.15 K
Observed Property: solubility (mole fraction)

Looking up O=Cc1ccc(C(=O)O)cc1 , I see its solubility (mole fraction) listed as 0.184

###

Settings: in isopropanol, 298.15 K
Observed Property: solubility (mole fraction)
Numbers only.

Looking up O=Cc1ccc(C(=O)O)cc1 , I see its solubility (mole fraction) listed as 0.00867

###

Settings: in water, 323.15 K
Observed Property: solubility (mole fraction)
One number for each entry.

Looking up O=Cc1ccc(C(=O)O)cc1 , I see its solubility (mole fraction) listed as 0.000148

###

Conditions: in NMP, 323.15 K
Observed Property: solubility (mole fraction)

Looking up O=Cc1ccc(C(=O)O)cc1 , I see its solubility (mole fraction) listed as 0.211

###

Details: in water, 318.15 K
Observed Property: solubility (mole fraction)
Give bare numbers.

Looking up O=Cc1ccc(C(=O)O)cc1 , I see its solubility (mole fraction) listed as 0.00012

###

Details: in ethanol, 303.15 K
Observed Property: solubility (mole fraction)
Answers are plain numbers.

Looking up O=Cc1ccc(C(=O)O)cc1 , I see its solubility (mole fraction) listed as 0.0155

###

Conditions: in water, 313.15 K
Observed Property: solubility (mole fraction)
Give bare numbers.

Looking up O=Cc1ccc(C(=O)O)cc1 , I see its solubility (mole fraction) listed as 9.57e-05

###

Details: in methanol, 318.15 K
Observed Property: solubility (mole fraction)

Looking up O=Cc1ccc(C(=O)O)cc1 , I see its solubility (mole fraction) listed as 0.0178

###

Conditions: in NMP, 303.15 K
Observed Property: solubility (mole fraction)
Give bare numbers.

Looking up O=Cc1ccc(C(=O)O)cc1 , I see its solubility (mole fraction) listed as 0.121

###

Details: in water, 308.15 K
Observed Property: solubility (mole fraction)
One number for each entry.

Looking up O=Cc1ccc(C(=O)O)cc1 , I see its solubility (mole fraction) listed as 7.67e-05

###

Settings: in water, 298.15 K
Observed Property: solubility (mole fraction)
One number for each entry.

Looking up O=Cc1ccc(C(=O)O)cc1 , I see its solubility (mole fraction) listed as 4.64e-05

###

Settings: in methanol, 308.15 K
Observed Property: solubility (mole fraction)
Numbers only.

Looking up O=Cc1ccc(C(=O)O)cc1 , I see its solubility (mole fraction) listed as 0.0144

###

Conditions: in methanol, 323.15 K
Observed Property: solubility (mole fraction)

Looking up O=Cc1ccc(C(=O)O)cc1 , I see its solubility (mole fraction) listed as 0.02

###

Conditions: in ethanol, 293.15 K
Observed Property: solubility (mole fraction)
Give bare numbers.

Looking up O=Cc1ccc(C(=O)O)cc1 , I see its solubility (mole fraction) listed as 0.0115

The values you see were collected from BigSolDB 2.1.
